System: HL-60(TB) leukemia
Assay: NCI-60 one-dose screen, 48 h
Details: 10 µM unless noted
Protocol: Growth inhibition of the HL-60(TB) human tumor cell line is measured as a screen for anti-cancer activity. Cells are grown in 96 well plates and exposed to the test compound for 48 hours. Compounds are tested at a single concentration, which is 10^-5 M for most compounds. The reported endpoint is percent growth (GI% or GIPRCNT), where numbers from 0 - 100% represent growth inhibition, and numbers from -100% - 0 represent cell death. For example, a value of 40 represents 60% growth inhibition. […]
Compounds without any hit were thinned out: in the full panel of roughly 83,000, 20% have a hit. The source made the active and inactive calls. Rule for the calls: active = growth percent below 10; inactive = the rest.
// allowed return values: active, inactive

>>> labelclass("CCOC(=O)c1cc(C(=O)c2cc(OC)c(OC)c(OC)c2)n2ccc(-c3ccncc3)cc12")
"inactive"

-- ask Fill in: this test's call for O=C(N/N=C/c1cc(Cl)ccc1O)C(=O)N/N=C/c1cc(Cl)ccc1O is ___
-- reply inactive

-- ask Okay, and CS(=O)(=O)c1ccc(-c2cnn3ccc(-c4cccc(S(=O)(=O)C5CC5)c4)nc23)cc1 ?
-- reply inactive

-- ask Okay, and COc1cc(-c2nnc(-c3c(-c4ccc(F)cc4)nc4ccccn34)o2)cc(OC)c1OC ?
-- reply inactive

-- ask Okay, and C[C@]12CCC(=O)C[C@H]1CC[C@@H]1[C@@H]2CC[C@@]2(C)[C@H]1CC[C@]2(O)C(=O)CO ?
-- reply inactive

-- ask Okay, and CN(C)CCCn1c(=O)c2cc([N+](=O)[O-])ccc2c2cnc3[nH]ccc3c21 ?
-- reply inactive

-- ask Okay, and N[C@H]1CN(C(=O)c2cc3cc(Br)c(F)c(F)c3[nH]2)C[C@@H]1O ?
-- reply inactive

-- ask Okay, and O=C(Nc1cccc(Cl)c1)Nc1cccc(Cn2c(=O)[nH]c3ccc(Oc4ncccn4)cc3c2=O)c1 ?
-- reply inactive

-- ask Okay, and COc1ccc(C(=O)n2nc(CC(=O)NCc3ccccc3)nc2N)cc1 ?
-- reply inactive

-- ask Okay, and Nc1c(C(=O)c2ccc(Br)cc2)sc2nc3c(cc12)CCCC3 ?
-- reply inactive
